Method Notes: yeast display, Sf9 membrane polyspecificity reagent, FACS + sequencing; frameworks hold sequencing errors
Property: polyreactivity (PSR sort gate)

Some entries whose results are on file:
sequence_text=QVQLVESGGGLVQAGGSLRLSCAASGLIFYNYAMGWYRQAPGKERELVAAISSGGSTYYADSVKGRFTISRDNAKNTVYLQMNSLKPEDTAVYYCAASGPGYSRYTQYDSWGQGTQVTVSS property="polyreactivity (PSR sort gate)" result="high polyreactivity"
sequence_text=QVHLVESGGGLDQAGGSLRLRCAATGRTFKYYAMGWYRQAPGKERELVAAISGSGGSTYYADSVKGRFTISRDNAKNTVYLQMNSLKPEDTAVYYCAAAGKETSRYAYDSWGQGTQVTVSS property="polyreactivity (PSR sort gate)" result="high polyreactivity"
sequence_text=QVQLVESGGGLVQAGGILRLSCAASGRTFYSNAMGWYRQAPGKARELVAAISRSGGRTYYADSVKGRFTISRDNAKISVYLQMNSLKTEDTAVYYCNKVRQNSSMDYWGQGTQVTVSS property="polyreactivity (PSR sort gate)" result="high polyreactivity"
sequence_text=QVQLVESGGGLVQAGGSLRLSCAASGRIFWINALGWYRQAPGKERELVAAISWRGDSTYYADSVKGRFTISRDNAKNTVYLQMNSLKPEDTAVYYCAATWYSWGSEFDYWGQGTQVTVSS property="polyreactivity (PSR sort gate)" result="high polyreactivity"
sequence_text=QVQLVESGGGLVQAGGSLRLSCAASGIIIRKYAMGWYRQAPGKERELVAAITTRGSRTYYADSVKGRFTISRDNAKNTVYLQMNSLKPEDTAVYYCAGDRYTVRMDYWGQGTQVTVSS property="polyreactivity (PSR sort gate)" result="high polyreactivity"

Task item: Bench note: what polyreactivity (PSR sort gate) did `QVQLVESGGGLVQAGGSLRLSCAASGIILPQNAMGWYRQAPGKERELVAAISKSGGRTYYADSVKGRFTISRDNAKNTVYLQMNSLKPEDTAVYYCAAVVRRAPEFDYWGQGTQVTVSS` show?
Reply: high polyreactivity

Task item: Consider the sequence shown here: `QVQLVESGGGLVQAGGSLRLSCAASGSIFVEYAMGWYRQAPGKERELVASITWSSTSTYYADSVKGRFTISRDNAKNTVYLQMNSLKPEDTAVYYCNTEDYQYAPYEYDYWGQGTQVTVSS` What is its recorded polyreactivity (PSR sort gate)?
Reply: low polyreactivity
